Values from patent US20240165113A1

- studySystem: unphosphorylated ABL1(T315I)(229-499) (Homo sapiens, UniProt P00519, T315I)
- Construct: The recombinant ABL1(T315I) (isoform 1a) residues 229-499 protein was designed with an N-terminal 10×His tag; made in house; host or cells: E. coli (co-expressed with YopH phosphatase and pGro7 chaperone)
- testName: SPR binding to unphosphorylated ABL1(T315I)(229-499)
- conditionContext: HBST buffer, Ni-NTA capture of 10xHis-tag, read-out: Unphosphorylated ABL1(T315I)(229-499) in HBST buffer KD
readoutLabel: pKd
Answers are plain numbers, as −log10 of the molar value.

unphosphorylated ABL1(T315I)(229-499) (Homo sapiens, UniProt P00519, T315I) pKd of Nc1nc(N)c(N=O)c(OCC2CCCCC2)n1 is 5.70
